- test.summary: self-splicing fitness, log relative to wild type (ln ratio); higher = more splicing; Tetrahymena group I intron in knt gene, E. coli kanamycin selection, DiMSum; sequences stand for … in CUCUCU…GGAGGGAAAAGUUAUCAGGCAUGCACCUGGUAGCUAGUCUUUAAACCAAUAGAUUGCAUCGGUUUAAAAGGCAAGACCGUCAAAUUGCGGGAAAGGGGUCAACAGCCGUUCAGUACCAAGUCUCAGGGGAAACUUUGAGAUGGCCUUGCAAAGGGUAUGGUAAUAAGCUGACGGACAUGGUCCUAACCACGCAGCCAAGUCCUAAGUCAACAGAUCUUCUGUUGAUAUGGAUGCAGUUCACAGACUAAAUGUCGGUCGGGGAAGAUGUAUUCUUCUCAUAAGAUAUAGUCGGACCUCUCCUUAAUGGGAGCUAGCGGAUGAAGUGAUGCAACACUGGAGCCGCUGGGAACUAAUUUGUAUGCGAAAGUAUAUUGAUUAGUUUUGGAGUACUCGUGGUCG;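 note: selection with 25 µg/mL kanamycin versus none on LB agar overnight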
- test.context: 37 °C
Decide using self-splicing fitness (ln): a value greater than or equal to -1 is Y, a smaller one is N.

UCAGAGCAAUAUUACGGGGG N
UGUAAGCAAUAUUACGGUCG Y
UAGAAGCAAUAUUACGCACG Y
ACCAAGCAAUAUUACGAUAC N

Q: Form field: self-splicing fitness (ln) at least -1? Entry: "GGCAAGCAAUAUUACGCCUU"
Ans: Y

Q: Form field: self-splicing fitness (ln) at least -1? Entry: "UAUGAGCAAUAUUACGUCUU"
Ans: N

###

Each record here notes measured self-splicing fitness (ln).
- test.summary: self-splicing fitness, log relative to wild type (ln ratio); higher = more splicing; Tetrahymena group I intron in knt gene, E. coli kanamycin selection, DiMSum; sequences stand for … in CUCUCU…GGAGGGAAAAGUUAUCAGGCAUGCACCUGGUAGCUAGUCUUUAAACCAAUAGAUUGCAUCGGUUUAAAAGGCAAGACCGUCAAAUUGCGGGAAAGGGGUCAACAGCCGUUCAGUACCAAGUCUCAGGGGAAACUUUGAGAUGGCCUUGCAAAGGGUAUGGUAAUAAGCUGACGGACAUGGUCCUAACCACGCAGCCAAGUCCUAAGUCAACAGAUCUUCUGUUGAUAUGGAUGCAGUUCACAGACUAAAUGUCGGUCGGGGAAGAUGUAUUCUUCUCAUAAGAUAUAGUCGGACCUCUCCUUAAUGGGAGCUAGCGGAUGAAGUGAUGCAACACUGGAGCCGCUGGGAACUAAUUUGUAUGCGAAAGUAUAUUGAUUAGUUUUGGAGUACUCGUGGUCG
- test.context: 37 °C
The reply should be a number, written without any unit.

Consider the reported self-splicing fitness (ln) for these sequences:
UCCUAGCAAUAUUACGCGCC -2.29
AGAGAGCAAUAUUACGCUGA -2.94
CGGAAGCAAUAUUACGUCUC -2.3
GGCCAGCAAUAUUACGUUUA -1.87
UGCAAGCAAUAUUACGUCUC -2.67

Per the records, this sequence ( "GACAAGCAAUAUUACGGAGC" ) has self-splicing fitness (ln) equal to -1.65

Per the records, this sequence ( "CCCCAGCAAUAUUACGAUCA" ) has self-splicing fitness (ln) equal to -2.68

Per the records, this sequence ( "AAACAGCAAUAUUACGCACU" ) has self-splicing fitness (ln) equal to 0.0967

Per the records, this sequence ( "UAGUAGCAAUAUUACGUACG" ) has self-splicing fitness (ln) equal to 0.127

Per the records, this sequence ( "ACUUAGCAAUAUUACGGAUU" ) has self-splicing fitness (ln) equal to -0.862

Per the records, this sequence ( "UUGCAGCAAUAUUACGUUAC" ) has self-splicing fitness (ln) equal to -2.18

Per the records, this sequence ( "AUUCAGCAAUAUUACGGCUG" ) has self-splicing fitness (ln) equal to -2.59

Per the records, this sequence ( "CAAUAGCAAUAUUACGUAGG" ) has self-splicing fitness (ln) equal to -0.384

Per the records, this sequence ( "GUCUAGCAAUAUUACGGUGA" ) has self-splicing fitness (ln) equal to -0.385

Per the records, this sequence ( "UAUUAGCAAUAUUACGGUUG" ) has self-splicing fitness (ln) equal to -0.107

Per the records, this sequence ( "AAGAAGCAAUAUUACGCGGC" ) has self-splicing fitness (ln) equal to -2.17

Per the records, this sequence ( "GUAGAGCAAUAUUACGAAUU" ) has self-splicing fitness (ln) equal to -2.01
